Tested on: 786-0
Experiment: NCI tumour cell line growth inhibition, 48 h
Activity calls are given as the source filed them. Cut-off read from the data, not from the text of the source: active = GI50 up to about 1.1 µM and inactive = higher.
Please reply with one of these outcomes: 1 = active, 0 = inactive

Please share the test call associated with COc1ccc2nc3n(c2c1)C(c1c(Cl)cccc1Cl)SC3 (stereo not drawn) .
0

// repeat for COc1cccc2c1C(=O)c1c(O)c3c(c(O)c1C2=O)CC(O)(C(O)CO)CC3OC1CC(N2CCOCC2)C(O)C(C)O1 (stereo not drawn) and report
1

Next entry: `Cc1ccc(C(=O)/C=C(\O)C(=O)NC23CC4CC(CC(C4)C2)C3)cc1`
0

Here is the next compound: CC(C)(C)OC(=O)n1cc(C2CNC(=O)C23CCC(=O)N3Cc2ccccc2)c2ccccc21 (stereo not drawn)
0

Now try `CN(C)c1ccc(-c2c(C#N)c(-c3ccccc3)n(NS(=O)(=O)c3ccccc3)c(=O)c2C#N)cc1` .
0

// same read-out, input: `Nc1cnc2c(c1)c(=O)nc1n2CCS1`
0

Note, next up: COC(=O)C(=O)C(C(=O)C(=O)Nc1cc([N+](=O)[O-])ccc1C#N)c1nc2ccccc2nc1O (stereo not drawn)
0

Repeat with CC(C)[C@@H]1CC[C@@H](C)C[C@H]1OC(=O)/C=C1/C2C=CC(O2)C1C(=O)O[C@@H]1C[C@H](C)CC[C@H]1C(C)C (stereo partly drawn)
0

Then what about the compound `N#Cc1c(-c2ccccc2)c(/C=N/c2ccc(F)cc2)c(=O)n2c1[nH]c1ccccc12` ?
0

// same read-out, input: `COC(=O)NNC(=O)OC.COC(=O)Nc1ccccc1NC(=O)OC.COC(=O)Oc1nn(C(=O)OC)c(=O)c2ccccc12`
0

Now the compound `CO/N=C(\C(=O)Nc1cncs1)c1csc(N)n1`
0

Do the same for COC(=O)C(/C(=N/N)C(=O)Nc1cccc(O)c1)c1nc2ccccc2nc1O (stereo not drawn) please
0

Then this compound: `COc1cc(/N=C(\N)N=C(N)N)c2ncccc2c1`
0

All figures here come from ChEMBL document CHEMBL1201862.
